Target: Bromodomain-containing protein 4 (Homo sapiens, UniProt O60885)
Experiment: Alphascreen assay. Binding to BRD4A (domain start/stop: N44-E168) by alphascreen assay
MEASURED_QUANTITY: IC50 (nM)

>>> reading("CCC(=O)N1CCOc2c(cc(-c3ccc(OC)c(OC)c3)cc2OC[C@H]2CCCN(C)C2)C1")
2460

Hello, the source for this data is ChEMBL document CHEMBL4649985, in case you need it.
